PBM binding z-score by entry:
# System: RARg homodimer (NR concentration 270 nM)
# measurement.notes: PBM binding z-score (relative to random genomic background probes); higher = stronger binding; sequences stand for … in GC…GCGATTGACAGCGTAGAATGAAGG
Keep the answer to the number alone.

ATCGAAAGGTCGTGAGGTCAGTATACAGAAAGGC    5.53

Input line: Report PBM binding z-score for `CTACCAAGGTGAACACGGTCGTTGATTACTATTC`
Output line: 0.843

Input line: Report PBM binding z-score for `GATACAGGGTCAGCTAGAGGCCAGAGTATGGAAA`
Output line: 4.67

* * *

# Tested on: LXRb homodimer (NR concentration 270 nM)
# measurement.notes: PBM binding z-score (relative to random genomic background probes); higher = stronger binding; sequences stand for … in GC…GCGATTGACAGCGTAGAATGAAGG
PBM binding z-score by entry:
Keep the answer to the number alone.

Some sequences with recorded PBM binding z-score:
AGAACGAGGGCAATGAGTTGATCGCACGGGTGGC    -0.58
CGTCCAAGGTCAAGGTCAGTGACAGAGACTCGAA    0.819
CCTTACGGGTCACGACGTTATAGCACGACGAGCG    0.374

Input line: Report PBM binding z-score for `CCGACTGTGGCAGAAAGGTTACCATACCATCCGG`
Output line: -0.636

Input line: Report PBM binding z-score for `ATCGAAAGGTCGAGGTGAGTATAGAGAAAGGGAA`
Output line: 0.504

Input line: Report PBM binding z-score for `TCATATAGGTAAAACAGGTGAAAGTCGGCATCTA`
Output line: 0.235

Input line: Report PBM binding z-score for `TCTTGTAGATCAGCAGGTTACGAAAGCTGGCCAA`
Output line: -0.369

Input line: Report PBM binding z-score for `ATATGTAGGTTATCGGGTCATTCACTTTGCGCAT`
Output line: 1.51

Input line: Report PBM binding z-score for `CCTAGTTGGTCAAGGTCACACAGGCTATAGGTAC`
Output line: 0.583

Input line: Report PBM binding z-score for `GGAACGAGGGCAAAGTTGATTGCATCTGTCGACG`
Output line: -0.546

Input line: Report PBM binding z-score for `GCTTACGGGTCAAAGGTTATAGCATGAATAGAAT`
Output line: 0.563

Input line: Report PBM binding z-score for `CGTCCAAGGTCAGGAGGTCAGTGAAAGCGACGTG`
Output line: -0.0727

* * *

# Tested on: RXRa DBDmut IVT, anti-RXR (DBD mutation: RXRa K156A/R161A, NR concentration 90 nM)
# measurement.notes: PBM binding z-score (relative to random genomic background probes); higher = stronger binding; sequences stand for … in GC…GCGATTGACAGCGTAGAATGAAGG
endpoint.name: PBM binding z-score
Keep the answer to the number alone.

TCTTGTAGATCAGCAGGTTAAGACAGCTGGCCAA    0.415

Input line: Report PBM binding z-score for `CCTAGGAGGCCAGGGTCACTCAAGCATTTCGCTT`
Output line: -0.274

Input line: Report PBM binding z-score for `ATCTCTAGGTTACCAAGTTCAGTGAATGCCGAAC`
Output line: 1.48

Input line: Report PBM binding z-score for `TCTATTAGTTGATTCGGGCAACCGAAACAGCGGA`
Output line: 1.15

Input line: Report PBM binding z-score for `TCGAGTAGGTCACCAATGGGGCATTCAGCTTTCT`
Output line: 0.972

Input line: Report PBM binding z-score for `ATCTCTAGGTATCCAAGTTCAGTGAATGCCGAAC`
Output line: 0.842

Input line: Report PBM binding z-score for `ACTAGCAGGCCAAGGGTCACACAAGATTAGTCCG`
Output line: 0.3

Input line: Report PBM binding z-score for `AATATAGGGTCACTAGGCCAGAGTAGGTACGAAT`
Output line: 2.94

Input line: Report PBM binding z-score for `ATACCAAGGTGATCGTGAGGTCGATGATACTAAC`
Output line: 0.391
